Test: Pharmacokinetic study of DPTM in rats after i.v., i.m. and p.o. administration (HPLC-MS/MS, non-compartmental)
Assay type: in vivo
Settings: Sprague-Dawley, rat, plasma, po, 10 mg/kg, rat serum, p.o., 10 mg/kg; read-out: AUC0→t
measurement_type: AUC(0-t)
Kindly report the value followed by its unit.

Recorded AUC(0-t) (compound C=CC1(C)CC(OC(=O)CSc2nc(N)cc(N)n2)C2(C)C(C)CCC3(CCC(=O)C32)C(C)C1O (stereo not shown) ): 500 ng·h/mL

* * *

Assay: Pharmacokinetic study of DPTM in rats after i.v., i.m. and p.o. administration (HPLC-MS/MS, non-compartmental)
Type: in vivo
Conditions: Sprague-Dawley, rat, plasma, im, 75 mg/kg, i.m., 75 mg/kg, read-out: t1/2 (converted)
Description: After administration of three i.v., i.m. and p.o. dose (10, 25 and 75 mg/kg) of DPTM to rats, the pharmacokinetic profiles of DPTM were quantified by the validated HPLC-MS/MS methods. […] Pharmacokinetic parameters, including maximum plasma concentration (Cmax), time (Tmax), area under the plasma concentration versus time curve from zero to last sampling time (AUC0−t) and elimination half-life (t1/2) were calculated using WinNonlin software (version 2.1, Pharsight, Mountain View, CA, USA). […]
measurement_type: half-life (h)
Give a bare numeral; the unit h is implied.

Recorded half-life (compound C=CC1(C)CC(OC(=O)CSc2nc(N)cc(N)n2)C2(C)C(C)CCC3(CCC(=O)C32)C(C)C1O (stereo not shown) [DPTM] ): 3.3

* * *

Test: Pharmacokinetic study of DPTM in rats after i.v., i.m. and p.o. administration (HPLC-MS/MS, non-compartmental)
Assay type: in vivo
Settings: Sprague-Dawley, rat, plasma, iv, 75 mg/kg, rat serum, i.v., 75 mg/kg; read-out: Cmax
Experimental: After administration of three i.v., i.m. and p.o. dose (10, 25 and 75 mg/kg) of DPTM to rats, the pharmacokinetic profiles of DPTM were quantified by the validated HPLC-MS/MS methods. […] Pharmacokinetic parameters, including maximum plasma concentration (Cmax), time (Tmax), area under the plasma concentration versus time curve from zero to last sampling time (AUC0−t) and elimination half-life (t1/2) were calculated using WinNonlin software (version 2.1, Pharsight, Mountain View, CA, USA). […]
measurement_type: Cmax (µg/mL)
Give a bare numeral; the unit µg/mL is implied.

Recorded Cmax (compound C=CC1(C)CC(OC(=O)CSc2nc(N)cc(N)n2)C2(C)C(C)CCC3(CCC(=O)C32)C(C)C1O (stereo not shown) [DPTM] ): 65.1

* * *

Assay: Pharmacokinetic study of DPTM in rats after i.v., i.m. and p.o. administration (HPLC-MS/MS, non-compartmental)
Format: in vivo
Conditions: Sprague-Dawley, plasma, po; rat, 10 mg/kg, median (min–max)
measurement_type: Tmax (h)
Give a bare numeral; the unit h is implied.

Recorded Tmax (molecule C=CC1(C)CC(OC(=O)CSc2nc(N)cc(N)n2)C2(C)C(C)CCC3(CCC(=O)C32)C(C)C1O (stereo not shown) [DPTM] ): 2

* * *

Assay: Pharmacokinetic study of DPTM in rats after i.v., i.m. and p.o. administration (HPLC-MS/MS, non-compartmental)
Format: in vivo
Conditions: Sprague-Dawley, rat, plasma, iv, range over 10, 25 and doses, read-out: maximum concentration (Cmax) of drug in serum
measurement_type: Cmax

Recorded Cmax (compound C=CC1(C)CC(OC(=O)CSc2nc(N)cc(N)n2)C2(C)C(C)CCC3(CCC(=O)C32)C(C)C1O (stereo not shown) ): 7540 to 65100 ng/mL
